Molecular target: T1, rat APJ receptor (rat, UniProt Q9JHG3 1-377)
T1 sequence (looked up): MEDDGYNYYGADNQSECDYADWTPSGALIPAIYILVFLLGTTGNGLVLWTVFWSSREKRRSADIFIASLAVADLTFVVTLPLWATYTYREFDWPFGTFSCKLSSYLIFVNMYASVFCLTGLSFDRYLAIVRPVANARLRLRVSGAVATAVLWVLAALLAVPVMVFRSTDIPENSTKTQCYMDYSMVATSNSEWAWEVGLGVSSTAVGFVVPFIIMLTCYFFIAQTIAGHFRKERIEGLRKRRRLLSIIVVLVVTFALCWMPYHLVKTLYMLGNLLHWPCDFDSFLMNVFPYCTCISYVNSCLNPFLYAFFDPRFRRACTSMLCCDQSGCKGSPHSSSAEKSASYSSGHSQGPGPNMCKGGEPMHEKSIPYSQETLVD
Assay: cell-based or functional assay
Starred links: 1 amine or outer side, 2 acyl side, 3 side chain; linkers in the order of their positions; H or OH if unused. Non-standard residues stand in square brackets, D forms with d. Primed or numbered codes have the meaning given here. *: point of attachment. Oic = O=C(O)[C@@H]1C[C@@H]2CCCC[C@@H]2N1; Phe(4-Cl) = N[C@@H](Cc1ccc(Cl)cc1)C(=O)O; γGlu = O=C(O)[C@H](CCC(=O)[*:2])N[*:1]; NMeR = CN[C@@H](CCCNC(=N)N)C(=O)O; Tridecanoyl = CCCCCCCCCCCCC(=O)*; hArg = N=C(N)NCCCC[C@H](N)C(=O)O; Cha = N[C@@H](CC1CCCCC1)C(=O)O; Aic = NC1(C(=O)O)Cc2ccccc2C1; AC4Abu″ = not defined here; β3hP = O=C(O)C[C@@H]1CCCN1; Nle = CCCC[C@H](N)C(=O)O; AEEA = NCCOCCOCC(=O)O; Aib = CC(C)(N)C(=O)O; BLeu = β-leucine; βAla = NCCC(=O)O
OBSERVABLE: EC50 Rat APJ Receptor (GTPγS assay) (nM)
Report as a plain number; the unit nM is understood.

What value of EC50 Rat APJ Receptor (GTPγS assay) has been reported for the following binder? Tridecanoyl-[γGlu][AEEA][AEEA]QRP[NMeR]LSHKGP[Nle][βAla][Phe(4-Cl)]-OH (SMILES CCCCCCCCCCCCC(=O)N[C@@H](CCC(=O)NCCOCCOCC(=O)NCCOCCOCC(=O)N[C@@H](CCC(N)=O)C(=O)N[C@@H](CCCNC(=N)N)C(=O)N1CCC[C@H]1C(=O)N(C)[C@@H](CCCNC(=N)N)C(=O)N[C@@H](CC(C)C)C(=O)N[C@@H](CO)C(=O)N[C@@H](Cc1c[nH]cn1)C(=O)N[C@@H](CCCCN)C(=O)NCC(=O)N1CCC[C@H]1C(=O)N[C@@H](CCCC)C(=O)NCCC(=O)N[C@@H](Cc1ccc(Cl)cc1)C(=O)O)C(=O)O) [Apelin polypeptide SEQ ID NO: 425]
0.157

What value of EC50 Rat APJ Receptor (GTPγS assay) has been reported for the following binder? Tridecanoyl-[γGlu][AEEA][AEEA][dQ][hArg]P[dR][Cha]SHKG[Oic][Nle]P[Aic]-OH [Apelin polypeptide SEQ ID NO: 366]
23.6

What value of EC50 Rat APJ Receptor (GTPγS assay) has been reported for the following binder? Tridecanoyl-[AC4Abu″][AEEA][AEEA][dQ][hArg][Aib][dR][Cha]SHKG[Oic][Nle]P[Phe(4-Cl)]-OH (reading uncertain; also: printed as {TDA}[AC4Abu][Aeea][Aeea]q[hArg][Aib]r[Cha]SHKG[Oic][Nle]P[4-Cl-F]{COOH}) [Apelin polypeptide SEQ ID NO: 454]
5.35

What value of EC50 Rat APJ Receptor (GTPγS assay) has been reported for the following binder? Tridecanoyl-[γGlu][AEEA][AEEA][dQ]R[β3hP][hArg][BLeu]SHKG[Oic][Nle][Aib][Phe(4-Cl)]-OH [Apelin polypeptide SEQ ID NO: 522]
6.77

Hello, the source for this data is patent US10941182, in case you need it.
